- Assay Info: qHTS assay to identify small molecule antagonists of the sonic hedgehog signaling (Shh) pathway - cell viability counter screen (AID 1259367); further: nearly all actives have a fitted effect of over 55% in size
- Conditions: NIH/3T3 Gli1-Luc viability, CellTiter-Fluor, 24 h; series mostly up to 92.4 µM
Results filed as inconclusive are left out. The source made the active and inactive calls. The call rests on the fitted dose curve; in most records, active means well fitted cell-killing curve with a large enough effect in the repeat runs; inconclusive means weak or mixed curves, or effect the other way; inactive means no such curve, though single readings can be large or run the other way.
Outcome codes: TRUE = active, FALSE = inactive

[
  {
    "Compound": "CC(C)Br",
    "Class Name": "FALSE"
  },
  {
    "Compound": "CN=C=O",
    "Class Name": "FALSE"
  },
  {
    "Compound": "O=[N+]([O-])C(Br)Br",
    "Class Name": "FALSE"
  },
  {
    "Compound": "CN1C(=O)[C@@H](NC(=O)c2cc3ccccc3[nH]2)N=C(c2ccccc2)c2ccccc21",
    "Class Name": "FALSE"
  },
  {
    "Compound": "CCCCc1ccccc1",
    "Class Name": "FALSE"
  },
  {
    "Compound": "Clc1ccc(C(Cl)(Cl)Cl)cc1Cl",
    "Class Name": "FALSE"
  },
  {
    "Compound": "Cc1cc2c3c(c1)C(c1ccccc1)=N[C@@H](NC(=O)c1ccncc1)C(=O)N3CC2",
    "Class Name": "FALSE"
  },
  {
    "Compound": "[C-]1=CC=CC1.[Cl][Zr+2][Cl].c1cc[cH-]c1",
    "Class Name": "FALSE"
  },
  {
    "Compound": "CC(Cl)CCl (stereo unspecified)",
    "Class Name": "FALSE"
  },
  {
    "Compound": "BrCCCBr",
    "Class Name": "FALSE"
  },
  {
    "Compound": "CC(Cc1ccc(OCC(=O)O)cc1)NCC(O)c1csc(C(F)(F)F)n1 (stereo unspecified)",
    "Class Name": "TRUE"
  },
  {
    "Compound": "CC1=C2C[C@H]3[C@@H](CC=C4C[C@@H](O)CC[C@@]43C)[C@@H]2CC[C@]12O[C@@H]1C[C@H](C)CN[C@H]1[C@H]2C",
    "Class Name": "FALSE"
  },
  {
    "Compound": "Cc1nn(-c2cc(NS(C)(=O)=O)c(Cl)cc2Cl)c(=O)n1C(F)F",
    "Class Name": "FALSE"
  },
  {
    "Compound": "COc1ccc2c3c1O[C@H]1[C@H](O)CC[C@H]4[C@@H](C2)N(C)CC[C@@]341",
    "Class Name": "FALSE"
  },
  {
    "Compound": "N#Cc1c[nH]cc1-c1cccc2c1OC(F)(F)O2",
    "Class Name": "FALSE"
  },
  {
    "Compound": "COP(=S)(NC(C)C)Oc1ccc(C)cc1[N+](=O)[O-] (stereo unspecified)",
    "Class Name": "FALSE"
  },
  {
    "Compound": "ClSC(Cl)(Cl)Cl",
    "Class Name": "FALSE"
  },
  {
    "Compound": "CC(C)=CCN1CC[C@@]2(C)c3cc(O)ccc3C[C@@H]1[C@@H]2C",
    "Class Name": "FALSE"
  },
  {
    "Compound": "Nc1cc(Cl)ccc1Cl",
    "Class Name": "FALSE"
  },
  {
    "Compound": "O=C(N[C@@H]1N=C(c2ccccc2F)c2cccc3c2N(CC3)C1=O)c1cc2ccccc2[nH]1",
    "Class Name": "FALSE"
  },
  {
    "Compound": "C=CC(=O)[O][Sn]([CH2]CCC)([CH2]CCC)[CH2]CCC",
    "Class Name": "TRUE"
  },
  {
    "Compound": "CC(Cc1ccccc1)N(C)Cc1ccco1 (stereo unspecified)",
    "Class Name": "FALSE"
  },
  {
    "Compound": "CCC[CH2][Sn]([CH2]CCC)([CH2]CCC)[CH2]CCC",
    "Class Name": "TRUE"
  },
  {
    "Compound": "c1ccc(Nc2ccc(Nc3ccccc3)cc2)cc1",
    "Class Name": "FALSE"
  },
  {
    "Compound": "CCCCON=O",
    "Class Name": "FALSE"
  },
  {
    "Compound": "O=P(Cl)(Cl)Cl",
    "Class Name": "FALSE"
  },
  {
    "Compound": "Oc1ccc([C@H]2CNCc3c2ccc(O)c3O)cc1O",
    "Class Name": "FALSE"
  },
  {
    "Compound": "CCCCC(CC)COC(=O)c1ccccc1C(=O)OCC(CC)CCCC (stereo unspecified)",
    "Class Name": "FALSE"
  },
  {
    "Compound": "N#Cc1sc2c(=O)c3ccccc3c(=O)c=2sc1C#N",
    "Class Name": "TRUE"
  },
  {
    "Compound": "O=C(Cl)c1ccccc1F",
    "Class Name": "FALSE"
  },
  {
    "Compound": "CCCCCCC[CH2][Sn]([Cl])([Cl])[CH2]CCCCCCC",
    "Class Name": "FALSE"
  },
  {
    "Compound": "COC(=O)C(C)N(C(=O)c1ccco1)c1c(C)cccc1C (stereo unspecified)",
    "Class Name": "FALSE"
  },
  {
    "Compound": "CCC1COC(Cn2cncn2)(c2ccc(Cl)cc2Cl)O1 (stereo unspecified)",
    "Class Name": "FALSE"
  },
  {
    "Compound": "CC(C)c1c(CN(C)C(C)Cc2ccccc2)n(C)n(-c2ccccc2)c1=O (stereo unspecified)",
    "Class Name": "FALSE"
  },
  {
    "Compound": "CCC(C)Nc1c([N+](=O)[O-])cc(C(C)(C)C)cc1[N+](=O)[O-] (stereo unspecified)",
    "Class Name": "FALSE"
  },
  {
    "Compound": "ClC1=C(Cl)[C@]2(Cl)[C@@H]3[C@H]4C[C@H]([C@@H]5O[C@H]45)[C@@H]3[C@@]1(Cl)C2(Cl)Cl",
    "Class Name": "TRUE"
  },
  {
    "Compound": "CN",
    "Class Name": "FALSE"
  },
  {
    "Compound": "N#Cc1ccc(N(CC(N)=O)CC(F)(F)F)cc1C(F)(F)F",
    "Class Name": "FALSE"
  },
  {
    "Compound": "CO/N=C(/C1=NOCCO1)c1ccccc1Oc1ncnc(Oc2ccccc2Cl)c1F",
    "Class Name": "FALSE"
  },
  {
    "Compound": "c1ccc(N=NNc2ccccc2)cc1",
    "Class Name": "FALSE"
  },
  {
    "Compound": "COP(=O)(OC)O/C(=C\\Cl)c1cc(Cl)c(Cl)cc1Cl",
    "Class Name": "FALSE"
  },
  {
    "Compound": "CSSC",
    "Class Name": "FALSE"
  },
  {
    "Compound": "CN1[C@@H]2CC[C@H]1CC(O)C2 (stereo partly specified)",
    "Class Name": "FALSE"
  },
  {
    "Compound": "O=C(N[C@H]1N=C(c2ccccc2F)c2cccc3c2N(CC3)C1=O)c1cc2ccccc2[nH]1",
    "Class Name": "FALSE"
  },
  {
    "Compound": "CC(=O)[O][Pb]([c]1ccccc1)([c]1ccccc1)[c]1ccccc1",
    "Class Name": "TRUE"
  },
  {
    "Compound": "C=CCBr",
    "Class Name": "FALSE"
  },
  {
    "Compound": "C[N+]1(C)[C@@H]2CC[C@H]1CC(OC(=O)C(CO)c1ccccc1)C2 (stereo partly specified)",
    "Class Name": "FALSE"
  },
  {
    "Compound": "CCN1CCC2(CC1)COc1cc3c(cc12)N(C(=O)c1ccc(-c2ccc(-c4nnc(C)o4)cc2C)cc1)CC3",
    "Class Name": "TRUE"
  },
  {
    "Compound": "CC(=O)[O-].CC(=O)[O-].O.O.O.[Pb+2]",
    "Class Name": "FALSE"
  },
  {
    "Compound": "CC(O)C(=O)[O][Hg][c]1ccccc1 (stereo unspecified)",
    "Class Name": "TRUE"
  },
  {
    "Compound": "Nc1ccccc1-c1ccccc1",
    "Class Name": "FALSE"
  }
]
